tested on: barnyardgrass (Echinochloa crusgalli); experiment: Example 11, Procedure II: Herbicide No. 1 + metazachlor (No. 14) with antidotes; format: in vivo; settings: Herbicide No.1 1.12 kg/ha + Herbicide No.14 3.36 kg/ha; antidote rate 8.96 kg/ha
MEASURED ENDPOINT: % Injury BYG (%)

>>> print(df.to_string())
                                   compound  unit_label  val
0                 O=C1OC(=O)c2cccc3cccc1c23           %  100
1                         CC1(C(Cl)Cl)OCCO1           %  100
2                   C=CCN(CC=C)C(=O)C(Cl)Cl           %  100
3  CC1(C)OC(c2ccco2)CN1C(=O)C(Cl)Cl (centres unmarked)           %  100
4                O=C(C(Cl)Cl)N1CCOC12CCCCC2           %   99

----------
tested on: velvetleaf (Abutilon theophrasti); assay: Example 19, Procedure II: Herbicide No. 1 + ERADICANE EXTRA with added antidotes; format: in vivo; conditions: Herbicide No.1 0.56 kg/ha + ERADICANE EXTRA 8.96 kg/ha; antidote 8.96 kg/ha
% Injury VL by entry:
MEASURED ENDPOINT: % Injury VL (%)

In [3]: df
Out[3]:
                                   molecule  unit_label  val
0                O=C(C(Cl)Cl)N1CCOC12CCCCC2           %   80
1                   C=CCN(CC=C)C(=O)C(Cl)Cl           %   75
2                 O=C1OC(=O)c2cccc3cccc1c23           %   75
3  CC1(C)OC(c2ccco2)CN1C(=O)C(Cl)Cl (centres unmarked)           %   75
4                         CC1(C(Cl)Cl)OCCO1           %   70

----------
% Inhibition Corn by entry:
tested on: corn; test: Example 23, Procedure II: Antidote Nos. 15 and 17-21 against Herbicide No. 1, 13 days after application; type: in vivo; settings: Table 23B; Herb. No. 1 1.12 Kg/Ha + antidote 0.56 Kg/ha; 13 days after application
MEASURED ENDPOINT: % Inhibition Corn (%)

                                   molecule  unit_label  val
0  O=C(O)COC(c1ccccc1)c1ccccc1 [compound 18]           %   30
1  CC1(C)OC(c2ccco2)CN1C(=O)C(Cl)Cl (stereo not drawn)           %   10
2             CCSC(=O)COC(c1ccccc1)c1ccccc1           %   35
3  O=C(O)COC(c1ccccc1)c1ccccc1 [compound 19]           %   40
4  CC1COc2ccccc2N1C(=O)C(Cl)Cl (stereo not drawn)           %   30
5              COC(=O)COC(c1ccccc1)c1ccccc1           %   40

----------
tested on: corn; test: Example 24, Procedure II: Herbicide No. 1 + co-herbicides Nos. 4, 6, 7, 12 with Antidote Nos. 15 and 17-21; format: in vivo; settings: Herb. No. 1 0.14 Kg/ha + Co-Herb. No. 4 1.12 Kg/ha + antidote 2.24 Kg/ha
MEASURED ENDPOINT: % Inhibition Corn (%)

                                   compound  val
0  CC1(C)OC(c2ccco2)CN1C(=O)C(Cl)Cl (stereo not drawn)   10
1  CC1COc2ccccc2N1C(=O)C(Cl)Cl (stereo not drawn)    0
2             CCSC(=O)COC(c1ccccc1)c1ccccc1    5
3  O=C(O)COC(c1ccccc1)c1ccccc1 [compound 18]    5
4  O=C(O)COC(c1ccccc1)c1ccccc1 [compound 19]    0
5              COC(=O)COC(c1ccccc1)c1ccccc1    0

----------
% Inhibition GFT by entry:
test system: Giant foxtail (Setaria fabergi); assay: Example 24, Procedure II: Herbicide No. 1 + co-herbicides Nos. 4, 6, 7, 12 with Antidote Nos. 15 and 17-21; assay type: in vivo; conditions: Herb. No. 1 0.14 Kg/ha + Co-Herb. No. 12 0.28 Kg/ha + antidote 2.24 Kg/ha
MEASURED ENDPOINT: % Inhibition GFT (%)

In [3]: df
Out[3]:
                                   molecule  measured_endpoint  val
0  CC1COc2ccccc2N1C(=O)C(Cl)Cl (stereo not drawn)   % Inhibition GFT   99
1  O=C(O)COC(c1ccccc1)c1ccccc1 [compound 18]   % Inhibition GFT   99
2             CCSC(=O)COC(c1ccccc1)c1ccccc1   % Inhibition GFT   99
3              COC(=O)COC(c1ccccc1)c1ccccc1   % Inhibition GFT  100
4  CC1(C)OC(c2ccco2)CN1C(=O)C(Cl)Cl (stereo not drawn)   % Inhibition GFT   99
5  O=C(O)COC(c1ccccc1)c1ccccc1 [compound 19]   % Inhibition GFT   99

----------
% Inhibition VL by entry:
system: velvetleaf (Abutilon theophrasti); test: Example 24, Procedure II: Herbicide No. 1 + co-herbicides Nos. 4, 6, 7, 12 with Antidote Nos. 15 and 17-21; type: in vivo; conditions: Herb. No. 1 0.28 Kg/ha + Co-Herb. No. 4 1.12 Kg/ha + antidote 2.24 Kg/ha
MEASURED ENDPOINT: % Inhibition VL

In [3]: df
Out[3]:
                                   compound                          tested_on  val
0  CC1COc2ccccc2N1C(=O)C(Cl)Cl (stereo not drawn)  velvetleaf (Abutilon theophrasti)  90%
1  CC1(C)OC(c2ccco2)CN1C(=O)C(Cl)Cl (stereo not drawn)  velvetleaf (Abutilon theophrasti)  95%
2  O=C(O)COC(c1ccccc1)c1ccccc1 [compound 19]  velvetleaf (Abutilon theophrasti)  95%
3              COC(=O)COC(c1ccccc1)c1ccccc1  velvetleaf (Abutilon theophrasti)  90%
4             CCSC(=O)COC(c1ccccc1)c1ccccc1  velvetleaf (Abutilon theophrasti)  95%
5  O=C(O)COC(c1ccccc1)c1ccccc1 [compound 18]  velvetleaf (Abutilon theophrasti)  95%

----------
% Inhibition GFT by entry:
test system: Giant foxtail (Setaria fabergi); experiment: Example 24, Procedure II: Herbicide No. 1 + co-herbicides Nos. 4, 6, 7, 12 with Antidote Nos. 15 and 17-21; format: in vivo; details: Herb. No. 1 0.56 Kg/ha + Co-Herb. No. 4 1.12 Kg/ha + antidote 2.24 Kg/ha
MEASURED ENDPOINT: % Inhibition GFT (%)

                                   compound                        tested_on  val
0              COC(=O)COC(c1ccccc1)c1ccccc1  Giant foxtail (Setaria fabergi)   65
1             CCSC(=O)COC(c1ccccc1)c1ccccc1  Giant foxtail (Setaria fabergi)   70
2  O=C(O)COC(c1ccccc1)c1ccccc1 [compound 18]  Giant foxtail (Setaria fabergi)   65
3  CC1(C)OC(c2ccco2)CN1C(=O)C(Cl)Cl (stereo not drawn)  Giant foxtail (Setaria fabergi)   60
4  O=C(O)COC(c1ccccc1)c1ccccc1 [compound 19]  Giant foxtail (Setaria fabergi)   70
5  CC1COc2ccccc2N1C(=O)C(Cl)Cl (stereo not drawn)  Giant foxtail (Setaria fabergi)   70

----------
% Injury VL by entry:
system: velvetleaf (Abutilon theophrasti); experiment: Example 11, Procedure II: Herbicide No. 1 + metazachlor (No. 14) with antidotes; type: in vivo; conditions: Herbicide No.1 1.12 kg/ha + Herbicide No.14 3.36 kg/ha; antidote rate 2.24 kg/ha
MEASURED ENDPOINT: % Injury VL (%)

>>> df
                                   compound  measured_endpoint  unit_label  val
0                 O=C1OC(=O)c2cccc3cccc1c23        % Injury VL           %   97
1                O=C(C(Cl)Cl)N1CCOC12CCCCC2        % Injury VL           %   90
2                         CC1(C(Cl)Cl)OCCO1        % Injury VL           %   90
3  CC1(C)OC(c2ccco2)CN1C(=O)C(Cl)Cl (centres unmarked)        % Injury VL           %   85
4                   C=CCN(CC=C)C(=O)C(Cl)Cl        % Injury VL           %   85
